- Test system: HCT116 MTAP-/-
- assayComment: Inhibition of cellular proliferation (Cell Titer Glo), HCT116 MTAP-/-
- Type: cell-based, human
- assaySetup: Homo sapiens, HCT-116, 96 h, Table 5a, 4 days, read-out: 4 Day Relative Growth Inhibition (MTAP −/−)
- Procedure: Test compound impact on cancer cell growth was assessed by treating cancer cells with compound for 4 days and then measuring proliferation using an ATP-based cell proliferation readout (Cell Titer Glo, Promega Corporation). In a typical assay an isogenic pair of HCT116 human colon carcinoma cell lines which vary only in MTAP deletion status (HCT116 MTAP+/+ and HCT116 MTAP−/−) were plated in 96-well dishes at appropriate cell density. […]
pIC50: −log10 of the molar value.
metricName: pIC50

Q: Consider the molecule CCOc1ccc2c(n1)N(c1ccc(OC)cc1)C(=O)N(c1ccc3ncn(C)c3c1)C2 tested on HCT116 MTAP-/-; state its pIC50.
A: 6.00 to 7.00

Q: Answer briefly: pIC50 recorded on HCT116 MTAP-/- for COc1ccc(N2Cc3ncc(NCC(F)(F)F)nc3N(c3ccc(Cl)cc3)C2=O)cc1
A: 6.00 to 7.00

Q: Using HCT116 MTAP-/- as the test system, report measured pIC50 of Cn1cc2cc(N3Cc4ncc(NCC(F)(F)F)cc4N(c4ccc(OC(F)F)cc4)C3=O)ccc2n1 .
A: > 7.00

Q: Report its pIC50 with HCT116 MTAP-/- as the test system: CCOc1ccc2c(n1)N(c1ccc(-c3nnc[nH]3)cc1)C(=O)N(c1ccc(OC)cc1)C2
A: 6.00 to 7.00

Q: Retrieve pIC50 on HCT116 MTAP-/-; query Cn1cnc2ccc(N3Cc4ccc(OCC(F)F)nc4N(c4ccc(OC(F)F)cc4)C3=O)cc21
A: > 7.00
